Data provenance: PubChem BioAssay AID504700

Target: cAMP-dependent protein kinase catalytic subunit beta (Homo sapiens) + cAMP-dependent protein kinase type II-beta regulatory subunit (Homo sapiens) (UniProt P22694+P31323)
Sequence (P31323 whole entry, looked up, other chains not shown): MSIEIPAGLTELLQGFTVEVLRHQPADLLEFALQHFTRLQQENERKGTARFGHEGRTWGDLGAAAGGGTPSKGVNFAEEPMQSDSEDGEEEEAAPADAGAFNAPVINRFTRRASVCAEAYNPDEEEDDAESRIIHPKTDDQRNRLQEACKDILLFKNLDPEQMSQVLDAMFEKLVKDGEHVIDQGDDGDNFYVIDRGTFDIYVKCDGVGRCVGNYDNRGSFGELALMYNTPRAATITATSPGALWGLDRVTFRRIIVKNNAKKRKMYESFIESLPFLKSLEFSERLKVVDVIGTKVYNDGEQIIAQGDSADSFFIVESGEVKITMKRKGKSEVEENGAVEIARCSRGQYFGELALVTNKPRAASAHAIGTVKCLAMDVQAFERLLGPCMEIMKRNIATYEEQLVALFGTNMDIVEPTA
Procedure details: activators of PKA-R2B holoenzyme, primary screen, biochemical, fluorescence polarization, Cy5-IP20, human (AID 504700);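 note: higher means more holoenzyme dissociation and a rise in polarization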
Condition context: PKA-R2B holoenzyme dissociation, at 11.4 µM, stronger effect = higher value, 0% DMSO only, 100% 113 µM cGMP, R2B truncated from residue 108, S112A mutant
About 270 (0.079%) of roughly 340,000 compounds were called active. The sample holds actives, similar compounds and a random draw of the others, so the mix is not that of the screen.
Measurement type: activation (%)
The reply should contain only the number, in %.

Compound: CCN(CC)C(=O)C1=C(C)N(Cc2ccc(F)cc2)C(=O)C(CC(=O)NCc2cccc3ccccc23)C1 (stereo not given)
activation [%]: 1.37
--
Compound: NC(=O)C1CCN(C(=O)c2ccc(C(F)(F)F)cc2)CC1
activation [%]: -0.72

Exercise: Form field: reported activation of `O=C(c1ncn2c1c(=O)[nH]c1ccccc12)N1CCc2ccccc2C1`
Solution: 0.26

Exercise: Which measured activation value corresponds to `Cc1cc(=O)c2ccc(NC(=O)c3ccccc3)cc2[nH]1` ?
Solution: 0.43

Exercise: Looking for the measured activation of CC(=O)c1ccc(OCC(=O)N(C)C2CCS(=O)(=O)C2)cc1 (stereo not given) , can you help?
Solution: -5.08
